Test system: CYP2C9
Assay protocol: Inhibition of CYP2C9 in rat liver microsomes at 100 uM using diclofenac as substrate preincubated for 5 min followed by NADPH addition and measured after 40 mins by UHPLC-MS/MS analysis
Type: ADME, Microsome
Measurement setup: probe diclofenac, time 45 min
Measurement label: inhibition at 40 min, 100 µM (%)
Answer with a number only, understood to be in %.

Lab request: please report inhibition at 40 min, 100 µM under test system CYP2C9 for CCN1CCN(c2ccc(Nc3ncc(C)c(Nc4ccc5cn[nH]c5c4)n3)cc2OC)CC1
45.6
